// reported Ki per item
- measured-target: isolated recombinant JAK1 kinase domain (Homo sapiens (Human))
- Sequence (P23458 875-1153): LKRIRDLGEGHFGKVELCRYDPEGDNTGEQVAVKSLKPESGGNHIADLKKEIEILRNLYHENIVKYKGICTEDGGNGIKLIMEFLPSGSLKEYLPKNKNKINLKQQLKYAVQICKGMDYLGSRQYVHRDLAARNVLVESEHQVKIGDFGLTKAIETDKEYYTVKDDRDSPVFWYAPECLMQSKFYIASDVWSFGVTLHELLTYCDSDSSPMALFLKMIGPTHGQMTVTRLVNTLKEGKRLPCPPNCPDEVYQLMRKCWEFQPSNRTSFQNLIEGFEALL
- protocol-notes: JAK1 enzyme assay (Caliper LabChip, Ki)
- Type: biochemical
endpoint: Ki (nM)

N#CC[C@]1(n2cc(C(N)=O)c(NC(=O)C3CC3)n2)CC[C@@H](NCc2ccc(F)cc2)CC1 | 164
N#CC[C@]1(n2cc(C(N)=O)c(NC(=O)C3CC3)n2)CC[C@H](N2CC3(CCC3)C2)CC1 | 3.3
N#CC[C@]1(n2cc(C(N)=O)c(NC(=O)C3CC3)n2)CC[C@@H](NCc2ccc(C#N)cc2)CC1 | 562
N#CC[C@]1(n2cc(C(N)=O)c(NC(=O)C3CC3)n2)CC[C@@H](NCc2ccc(Cl)cc2)CC1 | 12
N#CC[C@]1(n2cc(C(N)=O)c(NC(=O)C3CC3)n2)CC[C@@H](N2CC(F)C2)CC1 | 5.5
N#CC[C@]1(n2cc(C(N)=O)c(NC(=O)C3CC3)n2)CC[C@H](NCC(F)(F)F)CC1 (single isomer, unassigned) | 1.2
N#CC[C@]1(n2cc(C(N)=O)c(NC(=O)C3CC3)n2)CC[C@H](NCc2ccc(F)cc2)CC1 | 21.9
N#CC[C@]1(n2cc(C(N)=O)c(NC(=O)C3CC3)n2)CC[C@H](NCc2ccccc2F)CC1 | 9.5
CN(CC(F)(F)F)[C@H]1CC[C@](CC#N)(n2cc(C(N)=O)c(NC(=O)C3CC3)n2)CC1 | 3.3
N#CCC1(n2cc(C(N)=O)c(NC(=O)C3CC3)n2)CCN(CC(O)c2ccccc2)CC1 (stereo not shown) | 447
N#CC[C@]1(n2cc(C(N)=O)c(NC(=O)C3CC3)n2)CC[C@@H](NCc2ccc(-c3ccccc3)cc2)CC1 | 4.6
N#CC[C@]1(n2cc(C(N)=O)c(NC(=O)C3CC3)n2)CC[C@@H](NCCC(F)(F)F)CC1 | 188

---

- System: JAK1-dependent STAT6 phosphorylation downstream of IL-13 stimulation in BEAS-2B human bronchial epithelial cells
- protocol-notes: JAK1 pathway assay in BEAS-2B cells (IL-13-pSTAT6, MSD)
- Assay type: cell-based
- recorded-conditions: BEAS-2B cells, IL-13 stimulation; read-out: IL-13 p-STAT6 BEAS-2B IC50
pIC50: −log10 of the molar value.
endpoint: pIC50

N#CCC1(n2cc(C(N)=O)c(NC(=O)C3CC3C#N)n2)CCN(CC2CCC(c3ccccc3)CC2)CC1F (stereo not drawn) [Example 230] | 7.22
N#CCC1(n2cc(C(N)=O)c(NC(=O)C3CC3C#N)n2)CCN(Cc2ccc(-c3ccccc3)cc2F)CC1F (stereo not drawn) [Example 218] | 7.55
N#CCC1(n2cc(C(N)=O)c(NC(=O)C3CC3C#N)n2)CCN(CC2CCC(c3ccccc3)CC2)CC1F (stereo not drawn) [Example 228] | 7.11

---

- measured-target: isolated recombinant JAK2 kinase domain (Homo sapiens (Human), UniProt O60674)
- Sequence (O60674 849-1124): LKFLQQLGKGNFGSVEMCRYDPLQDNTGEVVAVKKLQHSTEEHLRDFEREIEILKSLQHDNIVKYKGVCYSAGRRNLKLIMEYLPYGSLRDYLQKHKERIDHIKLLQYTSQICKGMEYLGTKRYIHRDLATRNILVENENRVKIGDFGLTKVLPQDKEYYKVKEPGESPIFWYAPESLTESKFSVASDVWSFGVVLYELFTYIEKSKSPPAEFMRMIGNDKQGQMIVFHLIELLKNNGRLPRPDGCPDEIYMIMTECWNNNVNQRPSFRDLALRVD
- protocol-notes: JAK2 enzyme assay (Caliper LabChip, Ki)
pKi: −log10 of the molar value.
Below, each of the compounds is paired with its reported pKi value.
endpoint: pKi

N#CC[C@]1(n2cc(C(N)=O)c(NC(=O)C3CC3)n2)CC[C@H](NCc2ccccc2Cl)CC1 | 7.26
COC(=O)Nc1nn(C2(CC#N)CCN(Cc3ccc(-c4ccccc4)c(O)c3F)CC2F)cc1C(N)=O (centres unmarked) | 9.62
N#CCC1(n2cc(C(N)=O)c(NC(=O)C3CC3C#N)n2)CCN(Cc2cc(O)c(-c3ccccc3)cc2F)CC1F (centres unmarked) | 9.54
N#CCC1(n2cc(C(N)=O)c(NC(=O)C3CC3)n2)CCN(Cc2ccc(-c3cccc(F)c3)cc2)CC1 | 8.26
N#CCC1(n2cc(C(N)=O)c(NC(=O)C3CC3)n2)CCN(Cc2ccc3nc[nH]c3c2)CC1 | 6.57
N#CCC1(n2cc(C(N)=O)c(NC(=O)C3CC3C#N)n2)CCN(CC2CCC(c3ccccc3)CC2)CC1F (centres unmarked) [Example 230] | 8.74
CCc1ccc(-c2ccc(CN3CCC(CC#N)(n4cc(C(N)=O)c(NC(=O)C5CC5)n4)CC3)cc2O)cc1 | 8.89
CCOC(=O)Nc1nn(C2(CC#N)CCN(Cc3ccc(-n4nccn4)cc3)CC2F)cc1C(N)=O (centres unmarked) | 8.89
N#CCC1(n2cc(C(N)=O)c(NC(=O)C3CC3)n2)CCN(Cc2cccc(OC(F)(F)F)c2)CC1 | 6.72
CN(CC(F)(F)F)[C@H]1CC[C@](CC#N)(n2cc(C(N)=O)c(NC(=O)C3CC3)n2)CC1 | 7.79
N#CC[C@@]1(n2cc(C(N)=O)c(NC(=O)C3CC3)n2)CCN(Cc2ccc(-c3ccccc3)cc2)C[C@H]1F (single isomer, unassigned) | 7.51
N#CCC1(n2cc(C(N)=O)c(NC(=O)C3CC3)n2)CCN(Cc2cccc(C#N)c2)CC1 | 6.91
N#CCC1(n2cc(C(N)=O)c(NC(=O)C3CC3)n2)CCN(Cc2ccc(-c3cccc(CO)c3)cc2)CC1 | 8.37
CC(c1ccccc1)N1CCC(CC#N)(n2cc(C(N)=O)c(NC(=O)C3CC3)n2)CC1 (centres unmarked) | 6.82
N#CC[C@]1(n2cc(C(N)=O)c(NC(=O)C3CC3)n2)CC[C@H](NCc2ccc(F)cc2)CC1 | 6.52
COc1cccc(-c2ccc(CN3CCC(CC#N)(n4cc(C(N)=O)c(NC(=O)C5CC5)n4)CC3)cc2)c1 | 8.11
COC(=O)Nc1nn(C2(CC#N)CCC(N3CC(F)(c4ccccc4)C3)CC2)cc1C(N)=O (centres unmarked) | 7.85
N#CCC1(n2cc(C(N)=O)c(NC(=O)[C@@H]3C[C@H]3F)n2)CCN(CC(F)(F)F)CC1 | 7.27
N#CCC1(n2cc(C(N)=O)c(NC(=O)[C@H]3CC34CCC4)n2)CCN(CC(F)(F)F)CC1 | 6.72
N#CCC1(n2cc(C(N)=O)c(NC(=O)C3CC3)n2)CCN(Cc2cccc(OC(F)F)c2)CC1 | 7.06
N#CCC1(n2cc(C(N)=O)c(NC(=O)C3CC3)n2)CCC(N2CC(F)(c3ccccc3)C2)CC1 (centres unmarked) | 8.23
CCC1(n2cc(C(N)=O)c(Nc3ccc(S(=O)(=O)C(F)F)cc3)n2)CCN(C(=O)CC#N)CC1 | 8.55
CS(=O)(=O)c1ccccc1CN1CCC(CC#N)(n2cc(C(N)=O)c(NC(=O)C3CC3)n2)CC1 | 6.91
N#CCC1(n2cc(C(N)=O)c(NC(=O)C3CC3)n2)CCN(Cc2ccc(-c3ccc(C(F)(F)F)cc3)cc2)CC1 | 6.81
N#CCC1(n2cc(C(N)=O)c(NC(=O)C3CC3)n2)CCN(Cc2ccc(-c3ccccc3F)cc2)CC1 | 7.89
CN(C)C(=O)c1cccc(-c2ccc(CN3CCC(CC#N)(n4cc(C(N)=O)c(NC(=O)C5CC5)n4)CC3)cc2)c1 | 7.81
C#Cc1ccc(CN2CCC(CC#N)(n3cc(C(N)=O)c(NC(=O)OC)n3)C(F)C2)c(F)c1 (centres unmarked) | 9.12

---

- measured-target: isolated recombinant JAK2 kinase domain (Homo sapiens (Human))
- protocol-notes: JAK2 enzyme assay (Caliper LabChip, Ki)
pKi: −log10 of the molar value.
Group membership follows pKi per the scheme band A (below 8), band B (8 to below 9), band C (9 or more)

C=Cc1ccc(CN2CCC(CC#N)(n3cc(C(N)=O)c(NC(=O)OC)n3)C(F)C2)cc1O (centres unmarked) | band C
N#CCC1(n2cc(C(N)=O)c(NC(=O)C3CC3)n2)CCN(Cc2ccc(-c3ccc(Cl)cc3)cc2)CC1 | band A
C#Cc1ccc(CN2CCC(CC#N)(n3cc(C(N)=O)c(NC(=O)C4CC4)n3)C(F)C2)c(Cl)c1 (centres unmarked) | band C
N#CC[C@]1(n2cc(C(N)=O)c(NC(=O)C3CC3)n2)CC[C@H](N2CC(F)C2)CC1 | band A
N#CC[C@]1(n2cc(C(N)=O)c(NC(=O)C3CC3)n2)CC[C@@H](NC2CC(F)(F)C2)CC1 | band A
CS(=O)(=O)Nc1cccc(CN2CCC(CC#N)(n3cc(C(N)=O)c(NC(=O)C4CC4)n3)CC2)c1F | band B
N#CC[C@]1(n2cc(C(N)=O)c(NC(=O)C3CC3)n2)CC[C@@H](NCc2ccccc2F)CC1 | band A
CS(=O)(=O)Nc1ccccc1CN1CCC(CC#N)(n2cc(C(N)=O)c(NC(=O)C3CC3)n2)CC1 | band A
N#CCC1(n2cc(C(N)=O)c(NC(=O)C3CC3)n2)CCC(Nc2ccc(-c3ccco3)cc2)CC1 (centres unmarked) | band B
CS(=O)(=O)c1cccc(CN2CCC(CC#N)(n3cc(C(N)=O)c(NC(=O)C4CC4)n3)CC2)c1 | band A
N#CC[C@]1(n2cc(C(N)=O)c(NC(=O)C3CC3)n2)CC[C@H](NC2CCOCC2)CC1 | band A
N#CCC1(n2cc(C(N)=O)c(NC(=O)C3CC3)n2)CCN(Cc2cccc(F)c2)CC1 | band A
CCn1ccc(-c2ccc(CN3CCC(CC#N)(n4cc(C(N)=O)c(NC(=O)OC)n4)C(F)C3)c(F)c2)n1 (centres unmarked) | band C
N#CCC1(n2cc(C(N)=O)c(NC(=O)C3CC3)n2)CCN(Cc2ccc(SC(F)(F)F)cc2)CC1 | band A
COC(=O)Nc1nn(C2(CC#N)CCN(Cc3ccc(-c4ccoc4)c(O)c3)CC2F)cc1C(N)=O (centres unmarked) | band C
N#CC[C@]1(n2cc(C(N)=O)c(NC(=O)C3CC3)n2)CC[C@H](NCCC(F)(F)F)CC1 | band A
N#CC[C@]1(n2cc(C(N)=O)c(NC(=O)C3CC3)n2)CC[C@@H](NCc2ccc(C#N)cc2)CC1 | band A
N#CCC1(n2cc(C(N)=O)c(NC(=O)C3CC3)n2)CCN(Cc2ccc(-c3csc(Cl)c3)cc2)CC1 | band B
